So I've got a bunch of substances here, and I need their rel. adhesion in [%] (±SEM; n = 3) values.
- Test system: FITC-labelled H. pylori on AGS cells
- assay_overview: Flow cytometric anti-adhesion assay of FITC-labelled H. pylori on AGS cells
- experimental_conditions: 75 μM; untreated control = 100%
Where no end group is shown, it is not given here.
Give bare numbers, in %.

Use these answered entries as a reference point.
• DAFNVNR [S3D] = 89
• LEDAFNV [S3G] = 93

Answer for every listed entry: what is its rel. adhesion in [%] (±SEM; n = 3)? The entries follow.
1. DFLEDAFNV [S3E]
2. Asp-Phe-Leu-Glu-Asp (DFLED) [S3A]
3. ELAFPGSAQEVDR [S5]
4. WEREEDEEQVDEEWR [S4]
5. DFLEDAF [S3F]
6. LNIGPSSSPDIYNPEAGR [S2]
7. LDALEPDNRIESEGGLIETWNPNNK [S1]
8. AFNVNR [S3B]

OUT:
[91, 102, 94, 98, 85, 93, 95, 97]

Answer for every listed entry: what is its rel. adhesion in [%] (±SEM; n = 3)? The entries follow.
1. GDFELVGQR [S6]
2. LEDAFNVNR [S3C]

OUT:
[94, 95]

FYI, the data here is from patent US9603888B2.
